Listed here are binders together with their documented koff.
System Under Test: T1, Human TNFR2-His (Sino 10417-H08H) (human, UniProt P20333 23-257)
T1 construct: Bought protein; also called recombinant human TNFR2 protein; not shown: His tag
T1 sequence (looked up): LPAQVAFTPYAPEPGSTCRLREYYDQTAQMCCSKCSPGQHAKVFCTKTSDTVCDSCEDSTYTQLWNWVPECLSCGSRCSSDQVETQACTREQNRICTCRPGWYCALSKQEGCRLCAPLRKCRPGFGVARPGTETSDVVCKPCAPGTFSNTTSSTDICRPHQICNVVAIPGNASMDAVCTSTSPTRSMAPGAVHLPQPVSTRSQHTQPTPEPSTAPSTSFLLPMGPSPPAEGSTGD
Assay Method Text: SPR (Biacore T200), antibody captured on Protein A chip
Procedure: Biacore was used to detect the specific binding of a test anti-TNFR2 antibody to human and cynomolgus monkey TNFR2 proteins. In this experiment, a Protein A chip was used, the time required for the chip to capture the diluted antibody was determined by manual run, so that the Rmax of the saturated binding to an antigen was 50 RU. […] The affinity of an antibody for an antigen was determined by using multi-cycle dynamics. […]
Give the value, in units of s⁻¹, as a plain number.

Consider the reported koff for these binders:
219-Hu4 (antibody, V domains shown, also called VH6 + VL5) VH: QVQLVQSGAEVKKPGSSVKVSCKASGYSFTNYWMNWVKQAPGQGLEWIGMIHPSDTETRLNQNFKDKATLTVDKSTSTAYMELSSLRSEDTAVYYCARGEGLGAARSVSMDYWGQGTLVTVSS VL: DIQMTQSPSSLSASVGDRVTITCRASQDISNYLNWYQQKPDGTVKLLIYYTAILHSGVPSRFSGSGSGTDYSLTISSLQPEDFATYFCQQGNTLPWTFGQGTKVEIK    0.000154
224-Hu7 (antibody, V domains shown, Humanized form of #224; also called VH9 + VL10) VH: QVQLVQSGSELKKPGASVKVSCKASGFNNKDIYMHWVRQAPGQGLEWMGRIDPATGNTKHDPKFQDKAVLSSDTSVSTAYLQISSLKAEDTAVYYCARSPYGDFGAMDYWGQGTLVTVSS VL: DIQMTQSPSSLSASVGDRVTITCTASSSVSSNYLHWYQQKPGKAPKLLIYSTSNLPSGVPSRFSGSGSGTDFTLTISSLQPEDFATYYCHQYHRSPWTFGQGTKVEIK    0.000815

Continue with the binder presented below.
query: Quick check: koff of 224-Hu2 (antibody, V domains shown, Humanized form of #224; also called VH9 + VL7) VH: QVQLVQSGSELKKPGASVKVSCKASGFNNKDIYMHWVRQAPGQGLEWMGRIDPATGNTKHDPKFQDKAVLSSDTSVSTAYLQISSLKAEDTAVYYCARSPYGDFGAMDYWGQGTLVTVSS VL: DIQMTQSPSSLSASVGDRVTITCTASSSVSSNYLHWYQQKPGSSPKLWIYSTSNLPSGVPSRFSGSGSGTDFTLTISSLQPEDFATYYCHQYHRSPWTFGQGTKVEIK ?
result: 0.000686
